Please respond with reported EC50 viability, dendritic cells D558 for every item in the list.
# TARGET: T1, human TREM2 expressed on cells (human, UniProt Q9NZC2 19-230)
# T1 sequence: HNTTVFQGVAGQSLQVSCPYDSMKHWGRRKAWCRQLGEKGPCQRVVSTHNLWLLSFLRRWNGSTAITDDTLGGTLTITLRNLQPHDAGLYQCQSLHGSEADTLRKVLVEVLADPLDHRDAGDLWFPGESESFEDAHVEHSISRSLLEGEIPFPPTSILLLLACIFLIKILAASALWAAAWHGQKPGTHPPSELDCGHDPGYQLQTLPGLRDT
# TEST DESCRIPTION: cell-based or functional assay
# number only, unit nM dropped from output

Short answer for AL2p-37 (antibody, IgG1, V domains shown, Fab and IgG formats under one id; also called AL2p-37 huIgG1) VH: QVQLVQSGAEVKKPGASVKVSCKASGYAFSSQWMNWVRQAPGQRLEWIGRIYPGGGDTNYAGKFQGRVTITADTSASTAYMELSSLRSEDTAVYYCARLLRNQPGESYAMDYWGQGTLVTVSS VL: DVVMTQSPDSLAVSLGERATINCRSSQSLVHSNGYTYLHWYQQKPGQSPKLLIYKVSNRFSGVPDRFSGSGSGTDFTLTISSLQAEDVAVYYCSQSTRVPYTFGGGTKVEIK : EC50 viability, dendritic cells D558 was 4.19

Short answer for AL2p-60 (antibody, IgG1, V domains shown) VH: QVQLVQSGAEVKKPGSSVKVSCKASGYAFSSQWMNWVRQAPGQGLEWMGRIYPGEGDTNYARKFQGRVTITADESTSTAYMELSSLRSEDTAVYYCARLLRNQPGESYAMDYWGQGTLVTVSS VL: GVVMTQTPLSLSVTPGQPASISCRSSQSLVHSNQYTYLHWYLQKPGQSPQLLIYKVSNRRSGVPDRFSGSGSGTDFTLKISRVEAEDVGVYYCSQSTRVPYTFGQGTKLEIK : EC50 viability, dendritic cells D558 was 0.152

Short answer for AL2p huIgG1 (human mouse chimeric parental antibody) (antibody, V domains shown, Mouse variable region with human IgG1 Fc region; Fab and IgG formats under one id; also called chimeric parental AL2p antibody as huIgG1) VH: QVQLQQSGPELVKPGASLKISCKASGYAFSSSWMNWVKQRPGKGLEWIGRIYPGDGDTNYNGEFRVRATLTADTSSTTAYMQLSSLTSEDSAVYFCARLLRNQPGESYAMDYWGQGASVTVSS VL: DVVMTQTPLSLPVSLGDQASISCRSSQSLVHSNGYTYLHWYLQKPGQSPKLLIYKVSNRFSGVPDRFSGSGSGTDFTLKISRVEADDLGVYFCSQSTRVPYTFGGGTKLEIK : EC50 viability, dendritic cells D558 was 95.7

Short answer for AL2p-47 huIgG1 (antibody, V domains shown) VH: QVQLVQSGAEVKKPGSSVKVSCKASGYAFSSDWMNWVRQAPGQGLEWMGRIYPGEGDTNYARKFHGRVTITADESTSTAYMELSSLRSEDTAVYYCARLLRNKPGESYAMDYWGQGTLVTVSS VL: DVVMTQTPLSLSVTPGQPASISCRTSQSLVHSNAYTYLHWYLQKPGQSPQLLIYKVSNRVSGVPDRFSGSGSGTDFTLKISRVEAEDVGVYYCSQSTRVPYTFGQGTKLEIKR : EC50 viability, dendritic cells D558 was 1.02
